# procedure-details: Plasma pharmacokinetics after single IV and PO dose
# Type: in vivo, male C57BL6/j mice
# measurement-setup: male, C57BL6/j, mouse; plasma, PO 20 mg/kg; read-out: MRT(0-∞)
recorded-metric: MRT inf (h)

* CC(C)Oc1ccc(CN2CCNCC2)cc1-n1c(CN2CCN(C(=O)COc3ccc(Cl)cc3)CC2)nc2ccccc2c1=O [PE] | 2.91

====

# procedure-details: Plasma pharmacokinetics after single IV and PO dose
# Type: in vivo, male C57BL6/j mice
# measurement-setup: male, C57BL6/j, mouse; plasma, IV 20 mg/kg
# Description: Three mice in each group were used for blood collection at each time point. Blood samples (approximately 400 μL) were collected after euthanasia using carbon dioxide inhalation via cardiac puncture pre-dose and 30 minutes, 1 hour, 2 hours, 4 hours, 8 hours and 12 hours post-dose. Blood samples were placed into tubes containing sodium heparin and centrifuged at 8000 rpm for 6 minutes at 4° C. to separate plasma from the blood samples. […]
recorded-metric: AUC(0-inf) (ng·h/mL)

- CC(C)Oc1ccc(CN2CCNCC2)cc1-n1c(CN2CCN(C(=O)COc3ccc(Cl)cc3)CC2)nc2ccccc2c1=O: 8490

====

# Tested on: BJeLR cells
# procedure-details: RSL testing: growth inhibition (alamar blue) in BJeLR cells
# Format: cell-based
# measurement-setup: Homo sapiens, BJeLR; read-out: EC50 (BJeLR)
recorded-metric: EC50 (nM)

- CCOc1ccccc1-n1c(C(C)N2CCN(C(=O)COc3ccc(Cl)cc3)CC2)nc2ccccc2c1=O (stereo not shown) [erastin]: 1780
- COCCN(CCOC)Cc1ccc(OC(C)C)c(-n2c(CN3CCN(C(=O)COc4ccc(Cl)cc4)CC3)nc3ccccc3c2=O)c1 [Compound 18]: 140
- CC(C)Oc1ccc(CNCCOCCO)cc1-n1c(CN2CCN(C(=O)COc3ccc(Cl)cc3)CC2)nc2ccccc2c1=O [Compound 24]: 2100
- CC(C)Oc1ccc(CN2CCOCC2)cc1-n1c(CN2CCN(C(=O)COc3ccc(Cl)cc3)CC2)nc2ccccc2c1=O [Compound 40]: 130

Ref: patent US9695133B2
